Origin of measurements: patent US20230295310A1

# subject.of.test: T1, human CD3e/d (human, UniProt P07766 23-126; P04234 22-105)
# T1 construct: Bought soluble protein; also called hCD3e/d; human CD3/ed (Sino CT038-H2508H)
# measurement.protocol: SPR (Carterra LSA), mAb on chip
property: Kd (nM)
Numbers only, in nM.

[[record]]
binder = "mAb 155 (antibody, V domains shown, VH and VL only) VH: EVQLVESGGGLVKTGGSLRLSCVASGFSFKKAWMNWVRQAPGKGLEWVGRIKRNTDGGTADYAAPVKGRFTLSRDDSKKTLFLQMNSLKTEDTAVYYCTTLDSSSYYVGYYYMDVWGKGTTVTVSS VL: DIQMTQSPSSVSASVGDRVIITCRASQDINNWLAWYQQKPGKAPKLLIYTASSLQSGVPSRFSGSGSGTDFTLTIGSLQPEDFATYYCQQAHSLPISFGQGTRLDIK"
unit_symbol = "nM"
assay_result = 46.2


For each of the binders below, state Kd.
1. mAb 93 (antibody, V domains shown, VH and VL only) VH: QVQLVESGGGVVQPGRSLRLSCAASGFTFRGYGMHWVRQAPGKGLEWVAIIYYNGNNKYYADSVKGRFTISRDNSKNTLYLQMNSLRAEDTAVYYCARGGGYNWFDPWGQGTLVTVSS VL: DIQMTQSPSSLSASVGDRVTITCRASQSISNYLNWYQQEPGKAPKLLIYTASSLQSGVPSRFSGSGSGTAFTLTISSLQPEDFAIYYCQRSSSPPFTFGPGTKLDIK
2. mAb 225 (antibody, V domains shown, VH and VL only) VH: QEQLVESGGGVVQPGGSLRLSCAASGFKFSGYGMHWVRQAPGKGLEWVAIIWYNGRKTYYAESVKGRFTISRDNSKNTLSLQMNRLRVEDTAVYYCTAGQGYNWFDPWGQGTLVTVSS VL: EIVMTQSPATLSVSPGERATLSCRASQSVSSNLAWYQQKPGQAPRLLIYGASTRATGIPARFSGSGSGTEFTLTISSLQSEDFAVYYCQQFNAWPLTFGGGTKMEIK
3. mAb 125 (antibody, V domains shown, VH and VL only) VH: EVQLVESGGGLVKTGGSLRLSCVASGFSFKKAWMNWVRQAPGKGLEWVGRIKRNTDGGTADYAAPVKGRFTLSRDDSKKTLYLQMNSLKTEDTAVYYCTTLDSSSRYVGYYYMDVWGKGTTVTVSS VL: DIQMTQSPSSVSASVGDRVIITCRASQDINNWLAWYQQKPGKVPKLLIYTASSLQSGVPSRFSGSGSGTDFTLTIGTLQPEDFATYYCQQAHSLPITFGQGTRLDIK
4. mAb 157 (antibody, V domains shown, VH and VL only) VH: EVQLVESGGGLVKTGGSLRLSCVASGFSFKKAWMNWVRQAPGKGLEWVGRIKRTADGGATDYAAPVKGRFTLSRDDSKNTLYLQMNSLKTEDTAVYYCTTLDSSSWYVGYYYMDVWGKGTTVTVSS VL: DIHMTQAPSSVSASVGDRVTFTCRASQDINNWLAWYQQKPGKAPKLLIYTASSLQSGVPSRFSGSGSGTDFTLTISSLQPEDFATYYCQQAHSLPITFGQGTRLGIK

47.8
11
36
53.1
